Test system: A673/TR/shEF
Test: cell viability (LOESS-normalised, relative to median of negative controls) (log2 ratio); higher = more viable cells (less compound effect), active = hit call of the paper (over 3 MAD below the median)
Details: 0.25 µM; library screen: screen1; EWS-FLI1 expression: low (doxycycline-induced shRNA knockdown); treatment time: 72 h
Out of some 3,200 compounds screened, about 300 (9.4%) showed activity. The entries come from a sample that favours actives as a whole.
Outcome codes: active, inactive

* CN(C)c1ccc(O)c2c1C[C@H]1C[C@H]3[C@H](N(C)C)C(=O)C(C(N)=O)=C(O)[C@@]3(O)C(=O)C1=C2O | inactive
* CC(C)c1c(O)ccc2c1CC[C@H]1C(C)(C)CCC[C@]21C | inactive
* CCOc1c(Br)cc(C=C(C#N)c2nn(-c3ccccc3)c(N)c2C#N)cc1OC | inactive
* NC(N)=NCCC[C@H](N[C@H](CCC(=O)O)C(=O)O)C(=O)O | inactive
* COc1ccccc1NC1CC(C)N(C(=O)c2ccc(C)cc2)c2c(C)cccc21 (stereo not given) | inactive
* CO[C@H]1C[C@H](O[C@@H]2/C(C)=C/C[C@@H]3C[C@@H](C[C@]4(CC[C@H](C)[C@@H](C5CCCCC5)O4)O3)OC(=O)[C@@H]3C=C(C)/C(=N/O)[C@H]4OC/C(=C\C=C\[C@@H]2C)[C@]43O)O[C@@H](C)[C@@H]1O | inactive
* COc1ccc(-c2nn(-c3ccccc3)cc2C=O)cc1[N+](=O)[O-] | inactive
* O=C1c2ccccc2-c2n[nH]c3cccc1c23 | inactive
* COc1ccc2c(c1)OC1CC1(c1ccccc1OC)C2=O (stereo not given) | inactive
* NC(Cc1ccc(F)cc1)C(=O)O (stereo not given) | inactive
* COc1ccccc1C=CC(=O)O | inactive
* Nc1nc(N)c2nc(CNc3ccc(C(=O)N[C@@H](CCC(=O)O)C(=O)O)cc3)cnc2n1 | active
* COc1cc(/C=C/C(=O)/C=C(O)/C=C/c2ccc(O)c(OC)c2)ccc1O | inactive
* Cc1cc(=O)c2c(O)c3c(cc2o1)OCC(C)CC3 (stereo not given) | inactive
* CN(C)c1ccc(C=C2SC(=S)N(c3ccc(F)cc3)C2=O)cc1 | inactive
* C(#CC12CC3CC(CC(C3)C1)C2)CN1CCOCC1 | inactive
* COc1cc(OC)c2c(=O)c(OC)c(-c3ccc(OC)c(OC)c3)oc2c1 | inactive
* C=C1c2cccc(O)c2C(O)=C2C(=O)[C@]3(O)C(O)=C(C(N)=O)C(=O)[C@@H](N(C)C)[C@@H]3[C@@H](O)[C@H]12 | inactive
* CC1(C)Oc2ccc3ccc(=O)oc3c2C[C@H]1O | inactive
* C[C@H]1c2cccc(O)c2C(O)=C2C(=O)[C@]3(O)C(O)=C(C(N)=O)C(=O)[C@@H](N(C)C)[C@@H]3[C@@H](O)[C@@H]21 | inactive

---

We begin with a simple list: items and their reported cell viability (log2).
Tested on: A673/TR/shEF
Assay: cell viability (LOESS-normalised, relative to median of negative controls) (log2 ratio); higher = more viable cells (less compound effect), active = hit call of the paper (over 3 MAD below the median)
Details: 25 µM; library screen: screen3; EWS-FLI1 expression: low (doxycycline-induced shRNA knockdown); treatment time: 72 h
Out of some 3,200 compounds screened, about 300 (9.4%) showed activity. What follows is part of a selection rich in actives, with near analogues and random picks from the rest.
quantity kind: cell viability (log2)

* [Cl][Pt+2][Cl].[NH2-].[NH2-] | 0.0626
* COc1c(C)c2c(c(O)c1C/C=C(\C)CCC(=O)OCCN1CCOCC1)C(=O)OC2 | -0.33
* COc1cc(Nc2c(C#N)cnc3cc(OCCCN4CCN(C)CC4)c(OC)cc23)c(Cl)cc1Cl | -0.647
* COc1cc([C@@H]2c3cc4c(cc3[C@@H](O[C@@H]3O[C@@H]5CO[C@@H](c6cccs6)O[C@H]5[C@H](O)[C@H]3O)[C@H]3COC(=O)[C@H]23)OCO4)cc(OC)c1O | -0.784
* Cc1nc(N)sc1-c1ccnc(Nc2ccc(N3CCOCC3)cc2)n1 | -0.719
* COc1ccc(Cl)cc1C(=O)NCCc1ccc(S(=O)(=O)NC(=O)NC2CCCCC2)cc1 | 0.0579
* Cc1nnc(C(C)C)n1C1C[C@H]2CC[C@@H](C1)N2CC[C@H](NC(=O)C1CCC(F)(F)CC1)c1ccccc1 (stereo partly drawn) | 0.0769
* COc1c(O)cc(C2Oc3c(c(O)cc(O)c3[C@H]3c4c(O)cc(O)cc4O[C@H](c4ccc(O)cc4)[C@@H]3O)C[C@H]2O)cc1O (stereo partly drawn) | 0.209
* O=C(CCCCCCC(=O)Nc1ccccc1)NO | -1.56
* Cc1cnc(C(=O)NCCc2ccc(S(=O)(=O)NC(=O)NC3CCCCC3)cc2)cn1 | 0.135
* COc1cc([C@@H]2c3cc4c(cc3[C@@H](O[C@@H]3O[C@@H]5CO[C@@H](C)O[C@H]5[C@H](O)[C@H]3O)[C@H]3COC(=O)[C@H]23)OCO4)cc(OC)c1O | -0.367
* CCC1=C(C)CN(C(=O)NCCc2ccc(S(=O)(=O)NC(=O)NC3CCC(C)CC3)cc2)C1=O (stereo not drawn) | -0.408
* COc1cc2c(Oc3ccc4[nH]c(C)cc4c3F)ncnc2cc1OCCCN1CCCC1 | 0.0041
* COc1c(C)c2c(c(O)c1C/C=C(\C)CCC(=O)O)C(=O)OC2 | -0.403
* CCc1nc(N)nc(N)c1-c1ccc(Cl)cc1 | 0.146
* C[N+]1(C)[C@@H]2CC(OC(=O)C(O)(c3cccs3)c3cccs3)C[C@H]1[C@@H]1O[C@@H]12 (stereo partly drawn) | 0.115
* O=c1cc(-c2cccc3c2Sc2ccccc2S3)oc(N2CCOCC2)c1 | -0.0432
* CN1CCCC(n2nc(Cc3ccc(Cl)cc3)c3ccccc3c2=O)CC1 (stereo not drawn) | -0.0202

---

We begin with a simple list: items and their reported cell viability (log2).
Test system: A673/TR/shEF
Assay: cell viability (LOESS-normalised, relative to median of negative controls) (log2 ratio); higher = more viable cells (less compound effect), active = hit call of the paper (over 3 MAD below the median)
Details: 2.5 µM; library screen: screen1; EWS-FLI1 expression: high (no doxycycline); treatment time: 72 h
Hit rate of the full screen: of about 3,200 compounds, about 300 (9.4%) showed activity. The sample as a whole holds a higher share of actives than the screen did.
quantity kind: cell viability (log2)

* COc1ccc2c(c1)OCC(Cc1ccc(OC)c(OC(C)=O)c1)C2=O (stereo unspecified) | -0.246
* O=c1c(-c2ccccc2)coc2cc(O)cc(O)c12 | 0.0821
* O=C(NCc1ccco1)/C(=C\c1ccco1)NC(=O)c1cccs1 | 0.0986
* COc1ccc2c(c1)OC[C@@H](Cc1ccc(OC)c(OC)c1)[C@@H]2O | 0.209
* COc1cc(C)c2c(=O)c3c(O)cc(O)cc3oc2c1 | 0.0175
* Cc1onc(-c2c(Cl)cccc2Cl)c1C(=O)Nc1ccc(Br)cc1F | 0.116
* O=c1cc([C@H]2Oc3cc(O)cc(O)c3C[C@H]2O)cc2c([C@H]3Oc4cc(O)cc(O)c4C[C@H]3O)cc(O)c(O)c2c1O | 0.134
* COc1ccc2c(c1)OC[C@@H](Cc1ccc(OC)c(OC)c1)C2=O | 0.11
* COc1ccc(-c2cc(=O)c3c(O)cc(O[C@@H]4O[C@H](CO[C@@H]5O[C@@H](C)[C@H](O)[C@@H](O)[C@H]5O)[C@@H](O)[C@H](O)[C@H]4O)cc3o2)cc1 | 0.0879
* COCCOC(=O)C1=C(C)NC(=S)NC1c1ccccc1 (stereo unspecified) | 0.0869
* CC(C)=CC1C(CO)C1(C)C (stereo unspecified) | 0.117

---

Tested on: A673/TR/shEF
Assay: cell viability (LOESS-normalised, relative to median of negative controls) (log2 ratio); higher = more viable cells (less compound effect), active = hit call of the paper (over 3 MAD below the median)
Conditions: 2.5 µM; library screen: screen1; EWS-FLI1 expression: high (no doxycycline); treatment time: 72 h
The campaign covered roughly 3,200 compounds. About 300 (9.4%) showed activity. The full list was thinned out, with actives kept by preference.
Outcome codes: active, inactive

* CC(C)(O)CC[C@@H](O)[C@@](C)(O)[C@H]1CC[C@@]2(O)C3=CC(=O)[C@@H]4C[C@@H](O)[C@@H](O)C[C@]4(C)[C@H]3CC[C@]12C | inactive
* NCCCCCN | inactive
* CC1=C(Cl)C(O)=CC(=O)C12Oc1cc(O)c(Cl)c(C)c1C2=O (centres undefined) | inactive
* COc1cc(/C=C(\C#N)C(N)=O)cc(CSc2nc3ccccc3s2)c1O | inactive
* COc1ccc(S(=O)(=O)N(CCO)c2ccccc2CN(C)C/C=C/c2ccc(Cl)cc2)cc1 | active
* COc1ccc2c(c1)[C@@]1(C)CCC(=O)C[C@@H]1CC2 | inactive
* C[C@@H]1CC[C@@]2(OC1)O[C@H]1C[C@H]3[C@@H]4CC[C@H]5C[C@@H](O)CC[C@]5(C)[C@H]4C[C@@H](O)[C@]3(C)[C@H]1[C@@H]2C | inactive
* Cc1cn2c(=O)c3ccccc3nc2nc1Nc1ccccc1C(=O)O | inactive
* C=C1[C@@H]([C@@]2(C)C=CC(=O)C(C)(C)[C@@H]2CC(=O)OC)CC[C@@]2(C)C(c3ccoc3)OC(=O)[C@H]3O[C@]132 (some centres undefined) | inactive
